targetOrSystem: PD-1/PD-L1 (Homo sapiens (Human))
Sequence (Q9NZQ7 19-238): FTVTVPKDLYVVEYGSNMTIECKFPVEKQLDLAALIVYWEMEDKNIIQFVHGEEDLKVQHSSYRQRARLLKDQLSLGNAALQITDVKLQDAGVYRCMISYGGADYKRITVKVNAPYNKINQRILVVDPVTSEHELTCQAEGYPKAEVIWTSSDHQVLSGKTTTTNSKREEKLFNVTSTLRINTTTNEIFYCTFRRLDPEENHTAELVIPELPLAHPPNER
protocolSummary: PD-1/PD-L1 binding assay (HTRF)
Method: The assays were conducted in a standard black 384-well polystyrene plate with a final volume of 20 μL. Inhibitors were first serially diluted in DMSO and then added to the plate wells before the addition of other reaction components. The final concentration of DMSO in the assay was 1%. […] After centrifugation, the plate was incubated at 25° C. for 60 min. before reading on a PHERAstar FS plate reader (665 nm/620 nm ratio). […]
resultType: IC50

>>> endpointvalue("C[C@H](O)CN1CCc2c(nc(C(=O)Nc3cccc(-c4cccc(NC(=O)c5nc6c(n5C)CCN(C[C@H]5CC[C@@H](C(=O)O)CC5)C6)c4Cl)c3Cl)n2C)C1")
"≤ 10 nM"

(Q) What measured IC50 is associated with "CCN1CCc2c(nc(C(=O)Nc3cccc(-c4cccc(NC(=O)c5nc6c(n5C)CCN(C[C@H]5CC[C@H](C(=O)O)CC5)C6)c4C#N)c3Cl)n2C)C1" on PD-1/PD-L1 (Homo sapiens (Human))?
(A) ≤ 10 nM
